tested on: Saccharomyces cerevisiae; assay: protein stability index of tFT-peptide fusion (C-terminal peptide) (PSI (0-1 scale)); higher = more stable (slower turnover); settings: genetic background: cdc34-1; temperature: 37 C;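 further: PSI is a weighted mean of sequencing reads over stability bins, variants kept only with over 10 reads, mCherry proximal and sfGFP distal, peptide attached via GGGS linker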
// f strictly below 0.4 in protein stability index; t otherwise

## Task Hi, just wondering whether RGVRALFLLLSF shows protein stability index of 0.4 or higher.
## Result t

## Task Could you verify whether the entry SRRRRLVSKFLA shows protein stability index of no less than 0.4?
## Result t

## Task Check this sequence for protein stability index at or above 0.4: LVFPPVPSLVLC
## Result f

## Task # bool: protein stability index of DFWCIIVIFLFR >= 0.4
## Result f

## Task Reported protein stability index reaches at least 0.4 for VFFLFLVFLTVV ?
## Result f

## Task State whether the measured protein stability index reaches 0.4, counting equality as reaching it, for VGCHISAFSDLI
## Result t

## Task hey, is protein stability index for this one >= 0.4? VLVVLRSEVSLS
## Result f

## Task Has WQVPYQRLAILF a recorded protein stability index greater than or equal to 0.4?
## Result t

## Task Is it the case that FVLFCWFFCIVW has protein stability index reaching or exceeding 0.4?
## Result f

## Task Is protein stability index for LLPFSLLDLLLC at or above 0.4?
## Result t

## Task Confirm if protein stability index reported for the sequence SRRSIGAYLFVS is 0.4 or above.
## Result t

## Task Reported protein stability index at or above 0.4? KRRKERIKIQQI
## Result t

## Task In plain terms: is recorded protein stability index at least 0.4 for VIWVLGALASWG ?
## Result t

## Task Evaluate LPPFRFSLPFRR : protein stability index at minimum 0.4?
## Result t

## Task Threshold query (protein stability index >= 0.4) on FFLDVMFLLFFF
## Result t

## Task Check if protein stability index >= 0.4 (inclusive). Item: VNTLCCVFRCNL
## Result t

## Task Dear colleague, could you confirm whether HPPPTLVPPHPR has protein stability index at or above 0.4?
## Result t

## Task I'd appreciate it if you could say whether GYRRCCHFLFTL has protein stability index at least equal to 0.4.
## Result t

## Task protein stability index >= 0.4 for FPFFFLSILSAV ?
## Result f

## Task Reported protein stability index at or above 0.4? LSLLILFVLLSF
## Result t

## Task Is reported protein stability index greater than or equal to 0.4 here: PSPYSLSPYFLV
## Result t

## Task Check this sequence for protein stability index at or above 0.4: WLLVVCRGLVFR
## Result f

## Task Is protein stability index for FFLSFICVMLCG at or above 0.4?
## Result f

## Task Hi team, for SRLVSRLGLYLS , is the recorded protein stability index at or above 0.4?
## Result t

## Task Does CEVLVVVMCLWG have a reported protein stability index of at least 0.4?
## Result f

## Task Reported protein stability index at or above 0.4? FLPHLMCVFSFC
## Result t

## Task Test whether the sequence INHVIHAKLRFS records protein stability index of 0.4 or higher.
## Result t

## Task // inclusive: protein stability index at least 0.4? input: SVFVVVVLVFWY
## Result f

## Task Would you say VILYCSNVAVCS shows protein stability index at minimum 0.4?
## Result f

## Task Is the recorded value of protein stability index equal to or greater than 0.4 for this sequence? SNFQLLPLFKNI
## Result t

## Task Say whether RLSTTTTKQFIH shows protein stability index of 0.4 or more.
## Result t

## Task // inclusive: protein stability index at least 0.4? input: CYSLLFVSVILF
## Result f

## Task Hi, just wondering whether SLSFLRPLLLIF shows protein stability index of 0.4 or higher.
## Result f

## Task Form field: protein stability index at least 0.4? Entry: WSHVPLAPLSCF
## Result t

## Task Does protein stability index meet or surpass 0.4 for CMPVYYTVVIRL ?
## Result f

## Task # bool: protein stability index of AGCFFVVLCGFF >= 0.4
## Result t

## Task For this sequence, is measured protein stability index 0.4 or higher? VCLVLVVVWWSG
## Result f

## Task State whether the measured protein stability index reaches 0.4, counting equality as reaching it, for ILAVMFEIYAIL
## Result t

## Task Threshold query (protein stability index >= 0.4) on WQGWFLSLCIWV
## Result f

## Task Please tell me: is the sequence FRFYCGLVIANV at or over 0.4 in terms of protein stability index?
## Result t

## Task Form field: protein stability index at least 0.4? Entry: SLTNYQRLIHVC
## Result f

## Task Assess whether reported protein stability index for IKIQPKKRISLI sits at 0.4 or higher.
## Result t

## Task protein stability index >= 0.4 for LVGYSVFVLFFS ?
## Result f

## Task Determine whether this sequence has protein stability index no lower than 0.4: LSTFFIFLRILR
## Result f

## Task Decide: protein stability index of RLRCRVLQWVWG >= 0.4?
## Result t

## Task // inclusive: protein stability index at least 0.4? input: RQILYYRERFIP
## Result t

## Task State whether the measured protein stability index reaches 0.4, counting equality as reaching it, for APLPPPPASVPP
## Result t

## Task Has GRVETIEFLFLR a recorded protein stability index greater than or equal to 0.4?
## Result t

## Task Could you please find out whether PVHARYCSLKWA has protein stability index that meets 0.4 or exceeds it?
## Result t

## Task Reported protein stability index reaches at least 0.4 for FFSGSVFMAVSL ?
## Result f

## Task Entry VLLLRRPLLVFS : is its protein stability index no less than 0.4?
## Result f

## Task Check the entry HRLQFKGYPICA : does protein stability index equal or exceed 0.4?
## Result f

## Task Item SRSFWHAIVFLA with protein stability index of 0.4 or above?
## Result f

## Task Exam item: decide whether the reported protein stability index for SYVRLDLFFFLG is at least 0.4.
## Result t

## Task Confirm if protein stability index reported for the sequence KRLALVSCSICG is 0.4 or above.
## Result t

## Task Please check the record IGILVTAVPVFD and state if its protein stability index is at or above 0.4.
## Result t

## Task Reported protein stability index at or above 0.4? FIPPRTYCLMIG
## Result t

## Task Please tell me: is the sequence AFKRVFWALWWM at or over 0.4 in terms of protein stability index?
## Result f

## Task I'd appreciate it if you could say whether FVGVLVLCVCRC has protein stability index at least equal to 0.4.
## Result f

## Task Quick check: does CPFLTLLISLDV have protein stability index greater than or equal to 0.4?
## Result t

## Task Would you say SSFDFVVSLCIY shows protein stability index at minimum 0.4?
## Result t

## Task Kindly determine if protein stability index recorded for VLLLLGGIVCVM is above or exactly 0.4.
## Result f

## Task Hi team, for MLFALLTIVFLG , is the recorded protein stability index at or above 0.4?
## Result f

## Task Hi team, for VLLVRIFLCWVC , is the recorded protein stability index at or above 0.4?
## Result f

## Task Is the recorded value of protein stability index equal to or greater than 0.4 for this sequence? CLVFGFLFFIVI
## Result f

## Task Hi, just wondering whether CPICDFLFLALF shows protein stability index of 0.4 or higher.
## Result t

## Task In plain terms: is recorded protein stability index at least 0.4 for VLRFVYDLVSAL ?
## Result t

## Task Is the recorded value of protein stability index equal to or greater than 0.4 for this sequence? GGFHWCPSASRG
## Result t

## Task Say whether HSRRRRPTPQSL shows protein stability index of 0.4 or more.
## Result t

## Task # bool: protein stability index of DRTRLFLLLIIA >= 0.4
## Result f

## Task Test whether the sequence FPVSSRSFSFIP records protein stability index of 0.4 or higher.
## Result t

## Task Reported protein stability index at or above 0.4? LAGSSSIVVVFG
## Result t

## Task API: above_or_equal(metric=protein stability index, cutoff=0.4) for item ARFCFRIFSFAS
## Result f
